# Test system: T1, human CD137-Fc (human, biotin-labeled)
# T1 construct: if 90 already holds the Fc, drop the second piece; also called biotin-labeled human CD137 fused to human IgG1 Fc fragment; biotin-human CD137-Fc; not shown: human IgG1 Fc fragment
# T1 sequence (chain, as listed by the source): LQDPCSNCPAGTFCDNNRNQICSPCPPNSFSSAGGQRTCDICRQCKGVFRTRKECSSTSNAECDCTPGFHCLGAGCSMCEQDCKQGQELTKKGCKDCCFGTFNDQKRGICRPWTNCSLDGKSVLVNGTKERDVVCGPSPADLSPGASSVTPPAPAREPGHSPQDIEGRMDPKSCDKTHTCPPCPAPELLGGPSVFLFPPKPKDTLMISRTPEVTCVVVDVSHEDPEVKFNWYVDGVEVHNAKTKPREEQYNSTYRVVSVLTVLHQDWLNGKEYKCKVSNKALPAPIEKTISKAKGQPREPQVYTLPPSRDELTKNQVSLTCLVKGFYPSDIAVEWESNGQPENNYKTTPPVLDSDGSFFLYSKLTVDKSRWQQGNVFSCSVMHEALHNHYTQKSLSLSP
# Run description: bead ELISA on biotin-human CD137-Fc, 125 vs 0 pmol free CD3e peptide;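 further: target captured on streptavidin-coated magnetic beads, signal read as fluorescence 2 min after adding APS-5 substrate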
Reported Signal decrease values for the following binders.
Give the number; % is assumed, so skip it.

// known answers, use as guide
Query block: Given Du115/DUL008 (antibody, V domains shown) VH: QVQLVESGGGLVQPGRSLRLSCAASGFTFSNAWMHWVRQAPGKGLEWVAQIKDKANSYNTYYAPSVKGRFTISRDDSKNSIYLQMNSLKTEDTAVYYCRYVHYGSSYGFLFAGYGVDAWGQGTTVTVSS VL: DIVMTQSPLSLPVTPGEPASISCQSSEELLHANRKTYLHWYQQKPGQAPRLLIYKVQNRFSGVPDRFSGSGSGTDFTLKISRVEAEDVGVYYCAQGTATPFTFGQGTKLEIK , state its recorded Signal decrease.
Result block: 97

Query block: Also dBBDu204 (antibody, V domains shown, Human IgG1; light chain GLS3000 (kappa)) VH: QVQLVESGGGLVQPGRSLRLSCAASGFTFSNAWMHWVRQAPGKGLEWVAQIKDRSNNYATYYAESVKGRFTISRDDSKNSIYLQMNSLKTEDTAVYYCHYVHYASASTVLPAFGVDAWGQGTTVTVSS VL: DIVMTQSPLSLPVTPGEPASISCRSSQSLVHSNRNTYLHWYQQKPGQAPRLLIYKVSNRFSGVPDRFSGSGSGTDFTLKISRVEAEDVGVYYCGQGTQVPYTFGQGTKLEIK ?
Result block: 95.7

Query block: Also DXDU01_3#072 (antibody, V domains shown, Human IgG1; light chain GLS3000 (kappa); also called dBBDu122) VH: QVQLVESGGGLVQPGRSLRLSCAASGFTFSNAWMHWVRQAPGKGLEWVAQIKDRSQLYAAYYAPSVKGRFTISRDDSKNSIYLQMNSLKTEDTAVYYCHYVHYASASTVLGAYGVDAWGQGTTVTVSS VL: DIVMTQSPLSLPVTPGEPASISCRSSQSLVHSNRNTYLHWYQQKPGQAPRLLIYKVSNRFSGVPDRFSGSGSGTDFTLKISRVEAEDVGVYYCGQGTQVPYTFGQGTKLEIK ?
Result block: 30.2

Query block: Also dBBDu139 (antibody, V domains shown, Human IgG1; light chain GLS3000 (kappa)) VH: QVQLVESGGGLVQPGRSLRLSCAASGFTFSNAWMHWVRQAPGKGLEWVAQIKDRGNAYNAYYAESVKGRFTISRDDSKNSIYLQMNSLKTEDTAVYYCRFVHYRHPLLHIQYGVDAWGQGTTVTVSS VL: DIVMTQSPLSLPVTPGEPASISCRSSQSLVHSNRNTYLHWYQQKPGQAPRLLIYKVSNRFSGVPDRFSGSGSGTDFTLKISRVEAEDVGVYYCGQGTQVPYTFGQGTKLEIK ?
Result block: 79.6

Query block: Also dBBDu186 (antibody, V domains shown, Human IgG1; light chain GLS3000 (kappa)) VH: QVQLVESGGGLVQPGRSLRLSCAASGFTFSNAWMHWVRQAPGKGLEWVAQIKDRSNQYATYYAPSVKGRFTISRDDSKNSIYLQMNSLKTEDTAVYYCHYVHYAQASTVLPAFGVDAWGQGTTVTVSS VL: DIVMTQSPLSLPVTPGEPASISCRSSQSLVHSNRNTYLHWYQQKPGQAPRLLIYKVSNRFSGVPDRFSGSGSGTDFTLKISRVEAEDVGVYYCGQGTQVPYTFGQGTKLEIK ?
Result block: 92.8

Query block: Also dBBDu183 (antibody, V domains shown, Human IgG1; light chain GLS3000 (kappa), before light chain maturation) VH: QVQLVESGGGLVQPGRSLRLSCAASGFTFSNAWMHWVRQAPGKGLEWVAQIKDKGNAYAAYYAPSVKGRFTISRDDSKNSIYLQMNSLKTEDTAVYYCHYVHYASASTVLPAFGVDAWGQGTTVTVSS VL: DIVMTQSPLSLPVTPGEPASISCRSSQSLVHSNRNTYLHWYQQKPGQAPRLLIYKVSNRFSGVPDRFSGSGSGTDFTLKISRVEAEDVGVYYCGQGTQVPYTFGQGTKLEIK ?
Result block: 93

***
Query block: Given dBBDu222 (antibody, V domains shown, Human IgG1; light chain GLS3000 (kappa)) VH: QVQLVESGGGLVQPGRSLRLSCAASGFTISSAWMHWVRQAPGKGLEWVAQIKDRANGYAAYYAPSVKGRFTISRDDSKNSIYLQMNSLKTEDTAVYYCRYVHYATAYDGFYGFGVDAWGQGTTVTVSS VL: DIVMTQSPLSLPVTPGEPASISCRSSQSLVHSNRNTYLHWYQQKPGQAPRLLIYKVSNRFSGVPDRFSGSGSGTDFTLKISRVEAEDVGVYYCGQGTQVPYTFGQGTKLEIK , state its recorded Signal decrease.
Result block: 55

Query block: Also DADU01_3#001 (antibody, V domains shown, Human IgG1; light chain GLS3000 (kappa); also called dBBDu126; dBBDu_126) VH: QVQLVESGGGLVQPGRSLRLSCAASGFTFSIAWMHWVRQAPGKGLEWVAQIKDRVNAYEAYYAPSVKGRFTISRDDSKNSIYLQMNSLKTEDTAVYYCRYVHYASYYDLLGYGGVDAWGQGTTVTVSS VL: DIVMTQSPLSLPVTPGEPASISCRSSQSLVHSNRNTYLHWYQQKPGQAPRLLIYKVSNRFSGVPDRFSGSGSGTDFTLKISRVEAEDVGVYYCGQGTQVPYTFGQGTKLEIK ?
Result block: 97.8

Query block: Also DXDU01_3#019 (antibody, V domains shown, Human IgG1; light chain GLS3000 (kappa); also called dBBDu125) VH: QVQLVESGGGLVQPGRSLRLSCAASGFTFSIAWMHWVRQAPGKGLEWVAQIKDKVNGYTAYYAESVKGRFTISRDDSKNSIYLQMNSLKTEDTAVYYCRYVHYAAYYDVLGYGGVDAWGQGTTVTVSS VL: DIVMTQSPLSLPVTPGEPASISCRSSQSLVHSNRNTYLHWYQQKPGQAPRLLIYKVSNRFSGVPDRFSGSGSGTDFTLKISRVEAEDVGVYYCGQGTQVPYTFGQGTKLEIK ?
Result block: 96.7

Query block: Also dBBDu174 (antibody, V domains shown, Human IgG1; light chain GLS3000 (kappa)) VH: QVQLVESGGGLVQPGRSLRLSCAASGFTFSSAWMHWVRQAPGKGLEWVAQIKDRASAYNAYYAESVKGRFTISRDDSKNSIYLQMNSLKTEDTAVYYCRYVHYPSYVSFLPYYGVDAWGQGTTVTVSS VL: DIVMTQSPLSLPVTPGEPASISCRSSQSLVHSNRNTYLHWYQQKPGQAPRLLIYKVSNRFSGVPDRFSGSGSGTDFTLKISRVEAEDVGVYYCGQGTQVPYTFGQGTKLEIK ?
Result block: 60.8
